Biological target: T1, Human a7b1 Ecto (X2B) (human, UniProt P05556 21-728)
T1 construct: extracellular domain
T1 sequence (chain, as listed by the source, chain 1 of 2): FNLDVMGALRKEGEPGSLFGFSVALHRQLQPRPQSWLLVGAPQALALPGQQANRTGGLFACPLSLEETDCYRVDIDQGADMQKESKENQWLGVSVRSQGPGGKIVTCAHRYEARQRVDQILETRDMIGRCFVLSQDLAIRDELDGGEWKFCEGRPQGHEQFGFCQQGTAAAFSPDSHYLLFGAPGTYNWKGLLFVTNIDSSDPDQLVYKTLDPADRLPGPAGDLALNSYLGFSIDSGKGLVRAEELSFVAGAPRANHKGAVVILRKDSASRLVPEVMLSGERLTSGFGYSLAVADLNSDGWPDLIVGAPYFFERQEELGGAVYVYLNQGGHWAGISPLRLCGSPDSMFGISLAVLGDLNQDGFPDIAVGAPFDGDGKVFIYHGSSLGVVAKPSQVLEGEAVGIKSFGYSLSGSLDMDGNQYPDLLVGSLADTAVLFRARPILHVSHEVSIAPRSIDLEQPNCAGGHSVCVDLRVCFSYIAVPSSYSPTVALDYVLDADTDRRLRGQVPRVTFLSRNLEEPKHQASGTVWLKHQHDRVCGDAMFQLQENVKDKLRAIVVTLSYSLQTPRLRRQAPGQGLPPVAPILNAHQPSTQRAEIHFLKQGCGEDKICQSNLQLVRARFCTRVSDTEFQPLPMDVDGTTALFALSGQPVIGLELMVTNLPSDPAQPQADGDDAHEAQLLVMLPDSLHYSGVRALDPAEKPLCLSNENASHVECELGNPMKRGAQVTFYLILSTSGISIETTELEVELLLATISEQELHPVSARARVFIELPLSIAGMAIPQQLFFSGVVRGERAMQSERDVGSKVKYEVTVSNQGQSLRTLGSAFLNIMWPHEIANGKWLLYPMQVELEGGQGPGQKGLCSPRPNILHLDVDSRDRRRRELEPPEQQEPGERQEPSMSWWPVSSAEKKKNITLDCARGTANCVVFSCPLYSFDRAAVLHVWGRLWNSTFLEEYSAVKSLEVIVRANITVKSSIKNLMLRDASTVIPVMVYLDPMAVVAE
T1 sequence (P05556 21-728, chain 2 of 2): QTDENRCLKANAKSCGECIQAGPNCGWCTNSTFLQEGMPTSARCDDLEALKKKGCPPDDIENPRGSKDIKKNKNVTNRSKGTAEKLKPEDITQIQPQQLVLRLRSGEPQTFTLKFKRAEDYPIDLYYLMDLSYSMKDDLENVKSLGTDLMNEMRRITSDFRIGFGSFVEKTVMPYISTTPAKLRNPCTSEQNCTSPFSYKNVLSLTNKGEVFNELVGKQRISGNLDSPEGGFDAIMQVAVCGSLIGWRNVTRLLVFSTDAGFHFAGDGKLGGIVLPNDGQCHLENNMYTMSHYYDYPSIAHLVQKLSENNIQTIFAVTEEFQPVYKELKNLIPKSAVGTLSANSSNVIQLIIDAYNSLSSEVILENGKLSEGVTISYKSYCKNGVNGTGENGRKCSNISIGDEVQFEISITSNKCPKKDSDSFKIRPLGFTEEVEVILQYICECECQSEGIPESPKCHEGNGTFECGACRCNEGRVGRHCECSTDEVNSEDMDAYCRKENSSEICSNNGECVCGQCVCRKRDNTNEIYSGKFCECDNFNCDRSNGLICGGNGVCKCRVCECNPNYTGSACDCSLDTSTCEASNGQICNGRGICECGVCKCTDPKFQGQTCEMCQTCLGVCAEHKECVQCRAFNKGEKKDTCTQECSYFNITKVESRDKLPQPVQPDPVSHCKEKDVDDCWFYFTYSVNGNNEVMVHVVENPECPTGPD
Experiment: SPR
Recorded Endpoint: Kd (nM)

{"Binder": "Ab41 (antibody, human IgG1, V domains shown) VH: EVQLVQSGAEVKKPGSSVKVSCKASGYSFTRYWMHWVRQAPGQGLEWIGKIDPSDSETRLNQEFRDRATLTVDKSTSTAYMELSSLRSEDTAVYYCARGGYFGEQWYHDVWGQGTLVTVSS VL: DIVMTQSPLSLPVTPGEPASISCRSSQSLVHRNGNTYLHWYLQKPGQSPQLLIYEVSKRFSGVPDRFSGSGSGTDFTLKISRVEAEDVGVYFCAQSIQVPWTFGGGTKLEIK", "Result": 3.88}
{"Binder": "AB-P (antibody, V domains shown) VH: QVQLVQSGAEVKKPGSSVKVSCKASGYSFTRYWMHWVRQAPGQGLEWIGKIDPSDSETRLNQEFRDRATLTVDKSTSTAYMELSSLRSEDTAVYYCARGGYFGEGWYFDVWGQGTLVTVSS VL: DVVMTQSPLSLPVTPGEPASISCRSSQSLVHRNGNTYLHWYLQKPGQSPQLLIYKVSNRFSGVPDRFSGSGSGTDFTLKISRVEAEDVGVYFCSQSTHVPWTFGGGTKLEIK", "Result": 63.7}
{"Binder": "Ab35 (antibody, human IgG1, V domains shown) VH: EVQLVQSGAEVKKPGSSVKVSCKASGYSFTRYWMHWVRQAPGQGLEWIGKIDPSDSETRLNQEFRDRATLTVDKSTSTAYMELSSLRSEDTAVYYCARGGYFGENWYHDVWGQGTLVTVSS VL: DIVMTQSPLSLPVTPGEPASISCRSSQSLVHRNGNTYLHWYLQKPGQSPQLLIYEVSNRYSGVPDRFSGSGSGTDFTLKISRVEAEDVGVYFCAQSIQVPWTFGGGTKLEIK", "Result": 4.47}
